# Tested on: Fibroblast
# protocol text: Incucyte cell viability with human fibroblast; further: unitless GR value; below 1 slowed growth and below 0 cell loss
# Type: toxicity, cell-based
# test context: 12 h, 10 µM, compound concentration 10 uM, replicate number 1
Label scheme for Growth Rate: lower than 0.3 is n, 0.3 and above is y.

# count of solved cases: 4
{"compound": "Cn1cc(C(=O)O)c2ccc(N3CCC(OCc4c(-c5c(Cl)cccc5Cl)noc4C4CC4)CC3)cc21", "label": "y"}
{"compound": "CC[C@H](Nc1c(C#N)c(-c2ccc(-c3cccc(C)c3F)cc2)nc2cnccc12)C(=O)O", "label": "y"}
{"compound": "CC(=O)c1c(C)c2cnc(Nc3ccc(N4CCNCC4)cn3)nc2n(C2CCCC2)c1=O", "label": "y"}
{"compound": "COc1cc(N2CCC(N3CCN(C)CC3)CC2)ccc1Nc1ncc(Cl)c(Nc2ccccc2S(=O)(=O)C(C)C)n1", "label": "n"}

IN: Determine whether this compound has Growth Rate no lower than 0.3: Oc1cccc(Nc2ccnc3[nH]c4ccccc4c23)c1
OUT: n

IN: Does the reported Growth Rate for Nc1ncnc2c1c(I)cn2[C@@H]1O[C@H](CO)[C@@H](O)[C@H]1O fall at or above the 0.3 mark?
OUT: y

IN: Entry CC(=O)N1CCN(c2ccc(OCC3COC(Cn4ccnc4)(c4ccc(Cl)cc4Cl)O3)cc2)CC1 (stereo not drawn) : is its Growth Rate no less than 0.3?
OUT: n

IN: Check if Growth Rate >= 0.3 (inclusive). Item: CCC(=O)Nc1cc(Nc2cc(NC3CC3)n3ncc(C#N)c3n2)ccc1C
OUT: y
